Biological target: Epidermal growth factor receptor (Homo sapiens, UniProt P00533, E746-A750DEL)
Sequence (P00533 whole entry E746-A750del, looked up): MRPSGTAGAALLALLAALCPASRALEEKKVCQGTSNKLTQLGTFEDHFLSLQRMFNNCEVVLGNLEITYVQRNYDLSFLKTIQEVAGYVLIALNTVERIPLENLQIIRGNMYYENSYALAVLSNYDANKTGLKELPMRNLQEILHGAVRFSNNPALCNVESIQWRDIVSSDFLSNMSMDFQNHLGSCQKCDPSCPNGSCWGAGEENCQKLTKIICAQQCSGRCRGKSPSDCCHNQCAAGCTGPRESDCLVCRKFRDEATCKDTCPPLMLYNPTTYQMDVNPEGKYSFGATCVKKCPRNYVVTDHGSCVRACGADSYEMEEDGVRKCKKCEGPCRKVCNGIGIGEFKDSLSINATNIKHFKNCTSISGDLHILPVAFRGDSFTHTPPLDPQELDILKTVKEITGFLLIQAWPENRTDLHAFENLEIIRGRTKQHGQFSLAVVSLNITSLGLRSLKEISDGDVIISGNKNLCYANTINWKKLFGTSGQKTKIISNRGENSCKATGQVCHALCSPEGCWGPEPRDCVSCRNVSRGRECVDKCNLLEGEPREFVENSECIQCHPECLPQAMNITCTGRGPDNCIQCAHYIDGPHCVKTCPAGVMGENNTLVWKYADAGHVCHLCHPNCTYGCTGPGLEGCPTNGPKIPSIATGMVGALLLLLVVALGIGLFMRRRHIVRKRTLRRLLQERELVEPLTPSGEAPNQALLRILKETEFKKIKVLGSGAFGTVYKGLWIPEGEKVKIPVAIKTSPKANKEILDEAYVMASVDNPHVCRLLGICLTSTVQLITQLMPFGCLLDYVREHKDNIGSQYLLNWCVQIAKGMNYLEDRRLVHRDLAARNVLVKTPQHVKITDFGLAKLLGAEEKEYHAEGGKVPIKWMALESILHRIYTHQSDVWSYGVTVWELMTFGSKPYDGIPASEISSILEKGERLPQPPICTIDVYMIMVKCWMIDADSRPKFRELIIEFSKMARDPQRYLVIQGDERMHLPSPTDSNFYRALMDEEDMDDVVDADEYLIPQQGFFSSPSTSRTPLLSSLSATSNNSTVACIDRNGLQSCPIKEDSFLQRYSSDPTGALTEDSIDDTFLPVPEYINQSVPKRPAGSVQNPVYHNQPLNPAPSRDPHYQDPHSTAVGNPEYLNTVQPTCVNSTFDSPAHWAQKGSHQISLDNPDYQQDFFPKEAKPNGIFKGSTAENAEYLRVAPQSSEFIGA
Assay: Inhibition of EGFR E746-A750 deletion mutant in human PC9 cells assessed as inhibition of phosphorylation at Y1068 after 2 hrs by sandwich ELISA method
PROPERTY: pIC50
When answering, recall that pIC50 equals minus log10 of the concentration in mol/L, and write that number alone.

Value of pIC50 reported for the molecule "C=CC(=O)N[C@H]1CCN(c2nc(Nc3ccc(N4CCN(C)CC4)cc3)c3ncn(CCO)c3n2)C1" is 7.51

Reported pIC50 for "C=CC(=O)N1C[C@@H]2CN(c3nc(Nc4ccc(N5CCN(C)CC5)cc4)c4ncn(C(C)C)c4n3)C[C@@H]2C1" was 8.10

// recorded pIC50 for "C=CC(=O)N[C@@H]1CN(c2nc(Nc3cn(CC)nc3OC)c3ncn(C)c3n2)C[C@H]1F" : 8.22

Recorded result, "C=CC(=O)N[C@@H]1CN(c2nc(Nc3cn(C)nc3C)c3ncn(C(C)C)c3n2)C[C@H]1F" , pIC50: 5.18

Where do these numbers come from? They come from ChEMBL document CHEMBL3608213.
